Assay: NCI Yeast Anticancer Drug Screen. Data for the wt2 strain (AID 169);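 also: 0% = growth of vehicle-treated yeast cultures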
Settings: S. cerevisiae wt2 strain growth inhibition; at 100.0 µM; active compounds read high
The panel holds about 79,000 compounds, 15% with a hit somewhere; the sample as a whole holds those more often.
Measurement type: growth inhibition (%)

* O=[N+]([O-])c1ccc(S(=O)(=O)Cc2ccccc2)c([N+](=O)[O-])c1 | 98
* Clc1ccc(/C(=C\c2ccccc2)Cn2ccnc2)cc1 | 77
* Cn1c(-c2ccc(/C=N\N3CCN(/N=C/c4ccc(-c5c[n+]6ccsc6n5C)cc4)CC3)cc2)c[n+]2ccsc12 | 90
* COC(=O)C(Cc1c[nH]c2ccccc12)N1CN(C)c2ccccc2C1=O (stereo not given) | 99
* O=C1C=C(Br)C(=O)c2ccccc21 | 99
* CCCCCCCCCCCCCCN | 99
* CN(N=O)C(=O)Nc1ccc(C(=O)O)cc1 | 6
* CN1CCN(C(=O)c2cccc3cccc(C(=O)O)c23)CC1 | 98
* O=[N+]([O-])c1cc[n+]([O-])c(Cl)c1 | 99
* CNC(=O)OCc1c(COC(=O)NC)c(C)n(-c2ccc(Br)cc2)c1C | 96
* CNCC(C)CNC | -41
* NCCCSc1ccccc1 | -1
* CC1(C)CC(=O)C(C=NC(=S)C(N)=S)=C(O)C1 | 20
* CC(=O)CCC1=C(C)C(=O)C(=O)C(C)=C1O | 94
* CC(C)Cc1ncc(CCCN=C(N)N)[nH]c1=O | 14
* CCCCCCCCCCCCCCCCCCNC(=S)/N=C/c1c(O)c2ccccc2[nH]c1=O | 20
* [N-]=[N+]=NC1(c2ccccc2)C(=O)Nc2ccccc2C1=O (stereo not given) | 22
* O=C(NOC(=O)c1ccc([N+](=O)[O-])cc1)c1ccc(Cl)cc1 | 97
* NCCOc1ccc(/C(=C(/Cl)c2ccccc2)c2ccccc2)cc1 | 97
* COc1ccc2c(c1)CCCC(Br)C2=O (stereo not given) | 98
* Cc1ccc(S(=O)(=O)Nc2cccc3cccnc23)cc1 | 59
* Cc1ccccc1NC(=O)c1c(C)oc2c1C(=O)c1ccccc1C2=O | 87
* COc1ccc2cc3c4cc5c(cc4cc[n+]3cc2c1OC)OCO5 | 97
* Nc1ccc2c(c1)C(=O)c1c(F)cccc1-2 | 64
* COc1ccc2nc3cccc([N+](=O)[O-])c3c(NCCCCCC(=O)O)c2c1 | 99
